Molecular target: human LPA1 (Homo sapiens, UniProt Q92633)
Construct: expressed in transfected cells; host or cells: Chinese hamster ovary (CHO) cells
Sequence (Q92633 whole entry): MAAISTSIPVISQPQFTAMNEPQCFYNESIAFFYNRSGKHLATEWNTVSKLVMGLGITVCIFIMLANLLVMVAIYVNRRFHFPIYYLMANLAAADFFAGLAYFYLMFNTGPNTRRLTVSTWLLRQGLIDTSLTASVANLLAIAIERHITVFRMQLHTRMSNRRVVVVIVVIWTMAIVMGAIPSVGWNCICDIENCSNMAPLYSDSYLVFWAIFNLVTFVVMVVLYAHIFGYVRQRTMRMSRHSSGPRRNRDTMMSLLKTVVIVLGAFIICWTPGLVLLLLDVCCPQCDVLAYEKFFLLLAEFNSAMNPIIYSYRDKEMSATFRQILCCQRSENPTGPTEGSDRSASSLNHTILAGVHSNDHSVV
Experiment: LPA1 functional antagonist assay (LPA-induced calcium flux)
Format: cell-based
Conditions: CHO cells overexpressing human LPA1; calcium flux induced by 10 nM LPA; read-out: hLPA1 IC50
Binary label based on IC50 with cut-off 0.02 µM: below gives 1 (yes), not below gives 0 (no).

Worked examples, 6 compounds total:
>>> print(df.to_string())
                                   compound                              assay_target  class_assignment
0  COC(C)CN(C)C(=O)OCc1c(C)noc1-c1ccc(O[C@@H]2CCC[C@@H](C(=O)O)C2)cc1 (stereo partly shown)  human LPA1 (Homo sapiens, UniProt Q92633)            0 (no)
1  Cc1noc(-c2ccc(O[C@H]3CCC[C@H](C(=O)O)C3)cn2)c1COC(=O)N(C)[C@@H](C)C1CC1  human LPA1 (Homo sapiens, UniProt Q92633)            0 (no)
2  Cc1nc(-c2onc(C)c2COC(=O)N(C)CC2CCCC2)ccc1O[C@H]1CCC[C@H](C(=O)O)C1  human LPA1 (Homo sapiens, UniProt Q92633)            0 (no)
3  Cc1nc(-c2onc(C)c2COC(=O)N(C)CC2CCC2)ccc1O[C@H]1CCC[C@H](C(=O)O)C1  human LPA1 (Homo sapiens, UniProt Q92633)           1 (yes)
4  Cc1noc(-c2ccc(O[C@H]3CCC[C@H](C(=O)O)C3)cc2)c1COC(=O)N(C)CCC1CC1  human LPA1 (Homo sapiens, UniProt Q92633)            0 (no)
5  Cc1nc(-c2onc(C)c2COC(=O)N(C)CC2CC2)ccc1O[C@H]1CCC[C@H](C(=O)O)C1  human LPA1 (Homo sapiens, UniProt Q92633)           1 (yes)

Here is the next item to consider.
Does this compound meet the criterion IC50 < 0.02 µM? Cc1noc(-c2ccc(O[C@H]3CCC[C@H](C(=O)O)C3)cc2)c1COC(=O)N1C[C@H]2C[C@H]2C1
0 (no)

====

Molecular target: human LPA1 (Homo sapiens)
Construct: expressed in transfected cells; host or cells: Chinese hamster ovary (CHO) cells
Assay: LPA1 functional antagonist assay (LPA-induced calcium flux)
Format: cell-based
Details: CHO cells overexpressing human LPA1; calcium flux induced by 10 nM LPA; read-out: LPA1 IC50
I'd be grateful if you could share measured IC50 for these entries.
Quick note: unit goes after the number.

Consider the worked cases shown below.
                                test_smiles  observed_result
0  Cc1cc(-c2onc(C)c2COC(=O)N(C)C2CCCC2)ccc1O[C@H]1CCC[C@H](C(=O)O)C1            52 nM
1  Cc1nc(-c2onc(C)c2COC(=O)N[C@H](C)c2ccccc2)ccc1O[C@H]1CCC[C@H](C(=O)O)C1            45 nM
2  Cc1nc(-c2onc(C)c2COC(=O)N(C)Cc2cccc(F)c2)ccc1O[C@H]1CCC[C@H](C(=O)O)C1            19 nM
3  Cc1noc(-c2ccc(O[C@H]3CCC[C@H](C(=O)O)C3)cn2)c1COC(=O)N(C)CC1CCC1             8 nM
4  Cc1noc(-c2ccc(O[C@H]3CCC[C@H](C(=O)O)C3)cn2)c1COC(=O)N(C)C(C1CC1)C1CC1            26 nM
5  Cc1noc(-c2cnc(O[C@H]3CCC[C@H](C(=O)O)C3)cn2)c1COC(=O)N(C)CCC(C)C           150 nM

// each compound listed below needs its IC50
1. Cc1noc(-c2cnc(O[C@H]3CCC[C@H](C(=O)O)C3)cn2)c1COC(=O)N(C)C1CCCC1
2. Cc1nc(-c2onc(C)c2COC(=O)NC(C)(C)C)ccc1O[C@H]1CCC[C@H](C(=O)O)C1
3. Cc1nc(-c2onc(C)c2COC(=O)N(C)[C@H](C)c2ccccc2)ccc1O[C@H]1CCC[C@H](C(=O)O)C1
4. Cc1nc(-c2onc(C)c2COC(=O)N(C)C(C)(C)C)ccc1O[C@H]1CCC[C@H](C(=O)O)C1

1. 88 nM
2. 166 nM
3. 17 nM
4. 50 nM

The measured values listed here are drawn from patent US11180488B2.
